test system: Vibrio cholerae; test: growth AUC normalised to DMSO control (fraction of control); higher = less growth inhibition, active = hit call of the paper; details: 20 µM
Counter-ions that a name gives are not always drawn.
measuredQuantity: growth AUC normalised to DMSO control
Number, no unit, nothing else.

// solved cases for growth AUC normalised to DMSO control follow
# compound, subjectOfTest, growth AUC normalised to DMSO control
rows = [
    ("CCN(CCCCOC(=O)c1ccc(OC)c(OC)c1)C(C)Cc1ccc(OC)cc1 (stereo not drawn) [Mebeverine hydrochloride]", "Vibrio cholerae", 1.02),
    ("CCOc1ccccc1OCC1CNCCO1 (stereo not drawn) [Viloxazine hydrochloride]", "Vibrio cholerae", 0.987),
    ("CC(CCc1ccccc1)NCC(O)c1ccc(O)c(C(N)=O)c1 (stereo not drawn) [Labetalol hydrochloride]", "Vibrio cholerae", 0.972),
    ("CC(=O)Nc1nnc(S(N)(=O)=O)s1 [Acetazolamide]", "Vibrio cholerae", 1.03),
    ("COc1cc2nc(N(C)CCCNC(=O)C3CCCO3)nc(N)c2cc1OC (stereo not drawn) [Alfuzosin hydrochloride]", "Vibrio cholerae", 1.06),
]

For record CCN1CCCC(OC(=O)C(c2ccccc2)c2ccccc2)C1 (stereo not drawn) [Piperidolate hydrochloride] the listed growth AUC normalised to DMSO control is 1.03

// sample N=C(N)NCc1cccc(I)c1 [Iobenguane sulfate] , its growth AUC normalised to DMSO control was 1.06

Looking up C#C[C@]1(OC(C)=O)CC[C@H]2[C@@H]3CCC4=CC(=NO)CC[C@@H]4[C@H]3CC[C@@]21CC (mixture of isomers) [Norgestimate] , I found its growth AUC normalised to DMSO control recorded as 0.984

----------
Measured growth AUC normalised to DMSO control accompanies every entry in the list below.
system: Salmonella enterica typhimurium; assay: growth AUC normalised to DMSO control (fraction of control); higher = less growth inhibition, active = hit call of the paper; details: 20 µM
Structures can show the parent of a compound that is named as a salt.
Reply with the value as a number alone.

# molecule, growth AUC normalised to DMSO control
measured = [
    ("Clc1ccccc1CN1CCc2sccc2C1 [Ticlopidine hydrochloride]", 0.975),
]

Entry under test: Cc1c(O)c(=O)n(-c2ccccc2)n1C [Antipyrine, 4-hydroxy] . Its growth AUC normalised to DMSO control was 1.01

CSc1ccc2c(c1)N(CCC1CCCCN1C)c1ccccc1S2 (stereo unspecified) [Thioridazine hydrochloride] yielded growth AUC normalised to DMSO control of 0.978

Value of growth AUC normalised to DMSO control reported for the molecule CCn1nc(C(=O)O)c(=O)c2cc3c(cc21)OCO3 is 0.0189

molecule C[C@H](CCC(=O)O)[C@H]1CC[C@H]2[C@@H]3[C@H](O)C[C@@H]4C[C@H](O)CC[C@]4(C)[C@H]3CC[C@]12C , growth AUC normalised to DMSO control observed: 0.991

----------
test system: Salmonella enterica typhimurium; test: growth AUC normalised to DMSO control (fraction of control); higher = less growth inhibition, active = hit call of the paper; conditions: 20 µM
Counter-ions that a name gives are not always drawn.
Please state which outcome applies, choosing from t = active, f = inactive

# compound, subjectOfTest, category
measured = [
    ("c1ccc2[nH]c(-c3cscn3)nc2c1", "Salmonella enterica typhimurium", "f"),
]

Qu. So what was the verdict on CCCCOc1cc(C(=O)OCCN(CC)CC)ccc1N [Benoxinate hydrochloride] in this test?
Ans. f

Qu. Look up the recorded call for COc1ccc(-c2cc(=S)ss2)cc1 in this test.
Ans. f

Qu. How was CN(C)CCN(Cc1ccc(Cl)cc1)c1ccccn1 [Chloropyramine hydrochloride] classified in this test?
Ans. f

Qu. Recorded call for CC(Cc1cccc(C(F)(F)F)c1)NCCOC(=O)c1ccccc1 (stereo unspecified) ?
Ans. f

Qu. Query: recorded result category for c1ccc(CN(CC2=NCCN2)c2ccccc2)cc1 [Antazoline hydrochloride] in this test
Ans. f

Qu. So what was the verdict on COc1cc2nc(N(C)CCCNC(=O)C3CCCO3)nc(N)c2cc1OC (stereo unspecified) [Alfuzosin hydrochloride] in this test?
Ans. f

----------
tested on: P. vulgatus RND KO; assay: growth AUC normalised to DMSO control (median) (fraction of control); higher = less growth inhibition, active = hit call of the paper; conditions: 20 µM
Where a name gives a salt, the structure may show the parent alone.
Below, each of the molecules is paired with its reported growth AUC normalised to DMSO control value.

# molecule, measuredQuantity, experimentalValue
rows = [
    ("CC(C)NCC(O)COc1cccc2[nH]ccc12 (stereo not given)", "growth AUC normalised to DMSO control", "1.05 (inactive)"),
    ("NCc1ccc(S(N)(=O)=O)cc1 [Mafenide hydrochloride]", "growth AUC normalised to DMSO control", "0.963 (inactive)"),
    ("Cc1c(O)cccc1C(=O)N[C@@H](CSc1ccccc1)[C@H](O)CN1C[C@H]2CCCC[C@H]2C[C@H]1C(=O)NC(C)(C)C [Nelfinavir mesylate]", "growth AUC normalised to DMSO control", "0.912 (inactive)"),
]

// sample COc1cc(C(=O)N2CCOCC2)cc(OC)c1OC , its growth AUC normalised to DMSO control was 1.01 (inactive)

growth AUC normalised to DMSO control recorded for this molecule, CC(C(=O)O)c1ccc(C(=O)c2ccccc2)s1 (stereo not given) , is 1.02 (inactive)

----------
test system: P. vulgatus WT; experiment: growth AUC normalised to DMSO control (median) (fraction of control); higher = less growth inhibition, active = hit call of the paper; details: 20 µM
Counter-ions that a name gives are not always drawn.
measuredQuantity: growth AUC normalised to DMSO control
// keep it numeric: no unit symbol after the value

Examples with answers:
# molecule, growth AUC normalised to DMSO control
records = [
    ("CCC1=C(C)CN(C(=O)NCCc2ccc(S(=O)(=O)NC(=O)N[C@H]3CC[C@H](C)CC3)cc2)C1=O [Glimepiride]", 1.01),
    ("CO[C@@]1(NC(=O)CSCC#N)C(=O)N2C(C(=O)O)=C(CSc3nnnn3C)CS[C@@H]21 [Cefmetazole sodium salt]", 0.03),
    ("CS(=O)(=O)CCNCc1ccc(-c2ccc3ncnc(Nc4ccc(OCc5cccc(F)c5)c(Cl)c4)c3c2)o1 [Lapatinib]", 1.03),
    ("CN(C)CCCO[C@@H]1[C@H]2OC(C)(C)O[C@H]2O[C@@H]1[C@H](O)CO [Amiprilose hydrochloride]", 0.966),
    ("Cc1nnc(NS(=O)(=O)c2ccc(N)cc2)s1 [Sulfamethizole]", 1),
]

growth AUC normalised to DMSO control in this record for O=C(O)c1cc(-c2ccc(F)cc2F)ccc1O [Diflunisal] : 1.07

Reported growth AUC normalised to DMSO control ( CCCCN1CCCCC1C(=O)Nc1c(C)cccc1C (stereo not drawn) [Bupivacaine hydrochloride] ) = 0.998

# growth AUC normalised to DMSO control of CC1CC(OC(=O)C(O)c2ccccc2)CC(C)(C)C1 (stereo not drawn) [Cyclandelate] = 0.975

----------
test system: Shigella flexneri; assay: growth AUC normalised to DMSO control (fraction of control); higher = less growth inhibition, active = hit call of the paper; conditions: 20 µM
Counter-ions that a name gives are not always drawn.
Your reply should match one of these outcome classes. yes (1) for active, no (0) for inactive

# count of solved cases: 5
# compound, category
rows = [
    ("C#C[C@]1(O)CC[C@H]2[C@@H]3CCC4=CCCC[C@@H]4[C@H]3CC[C@@]21C", "no (0)"),
    ("CCOC(=O)C1=C(COCCN)NC(C)=C(C(=O)OC)C1c1ccccc1Cl (centres undefined)", "no (0)"),
    ("CCCCOc1ccc(CC(=O)NO)cc1", "no (0)"),
    ("CCCCCCC[N+](CC)(CC)CCCCc1ccc(Cl)cc1 [Clofilium tosylate]", "no (0)"),
    ("Cn1c(=O)c2c(ncn2CCO)n(C)c1=O", "no (0)"),
]

Qu. # fetch the recorded call for Clc1ccc(C(Cn2ccnc2)OCc2c(Cl)cccc2Cl)c(Cl)c1 (centres undefined) here
Ans. no (0)

Qu. Given Cc1cn([C@H]2C[C@H](N=[N+]=[N-])[C@@H](CO)O2)c(=O)[nH]c1=O , state the outcome it received in this test.
Ans. yes (1)

Qu. State the result this test recorded for CCS(=O)(=O)CCn1c([N+](=O)[O-])cnc1C .
Ans. no (0)

Qu. Hey, what did the test say about CC(Cc1cccc(C(F)(F)F)c1)NCCOC(=O)c1ccccc1 (centres undefined) ?
Ans. no (0)

Qu. Query: recorded result category for Nc1ccc(C(=O)NCC(=O)O)cc1 in this test
Ans. no (0)

Qu. Query: recorded result category for CC(C)[N+](C)(CCOC(=O)C1c2ccccc2Oc2ccccc21)C(C)C [Propantheline bromide] in this test
Ans. no (0)

Qu. Please indicate how the test categorized CC1Cc2ccccc2N1NC(=O)c1ccc(Cl)c(S(N)(=O)=O)c1 (centres undefined) [Indapamide] .
Ans. no (0)

Qu. Hey, what did the test say about N[C@@H]1CONC1=O ?
Ans. no (0)

Qu. Record request — test call for Cn1c(=O)c2c(ncn2CC(=O)O)n(C)c1=O
Ans. no (0)

Where these numbers come from: the supplement of paper PMC12350171
